ASSAYED SYSTEM: T1, mα5β1 (Mus musculus, UniProt P09055+P11688)
T1 construct: The full extracellular domains for all α and β integrin subunits; (GGGS)3 linker (C); acidic coiled-coil with cysteine (C); GG-Avitag (C); hexa-histidine tag (C); basic coiled-coil with cysteine (C); made in house; host or cells: Expi293 cells
T1 sequence (P11688 45-999 limits assumed): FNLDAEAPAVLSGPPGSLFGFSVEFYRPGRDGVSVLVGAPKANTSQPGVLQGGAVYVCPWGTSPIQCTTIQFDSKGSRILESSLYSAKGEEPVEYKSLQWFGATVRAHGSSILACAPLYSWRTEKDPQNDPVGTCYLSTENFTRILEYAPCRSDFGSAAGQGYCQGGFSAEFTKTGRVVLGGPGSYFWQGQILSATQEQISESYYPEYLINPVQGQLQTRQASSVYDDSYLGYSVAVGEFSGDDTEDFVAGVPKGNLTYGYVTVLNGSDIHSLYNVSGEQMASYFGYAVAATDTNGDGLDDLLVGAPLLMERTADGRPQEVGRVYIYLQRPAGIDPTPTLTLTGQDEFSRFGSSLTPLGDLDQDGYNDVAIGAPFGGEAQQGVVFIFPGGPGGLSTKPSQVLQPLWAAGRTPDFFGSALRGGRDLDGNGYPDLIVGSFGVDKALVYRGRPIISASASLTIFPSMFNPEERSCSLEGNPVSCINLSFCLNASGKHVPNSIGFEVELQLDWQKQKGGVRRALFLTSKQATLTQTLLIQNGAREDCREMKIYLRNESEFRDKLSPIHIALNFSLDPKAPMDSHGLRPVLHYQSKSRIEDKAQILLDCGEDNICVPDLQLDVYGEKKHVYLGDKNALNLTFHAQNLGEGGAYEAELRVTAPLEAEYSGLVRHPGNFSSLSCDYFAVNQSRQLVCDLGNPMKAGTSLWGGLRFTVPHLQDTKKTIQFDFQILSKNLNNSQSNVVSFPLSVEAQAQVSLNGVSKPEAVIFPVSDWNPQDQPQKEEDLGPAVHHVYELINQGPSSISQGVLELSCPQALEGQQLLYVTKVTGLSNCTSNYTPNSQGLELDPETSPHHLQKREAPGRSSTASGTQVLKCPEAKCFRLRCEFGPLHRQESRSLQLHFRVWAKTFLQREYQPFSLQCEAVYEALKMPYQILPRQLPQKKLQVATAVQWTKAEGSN
T1 sequence (P09055 21-728 limits assumed): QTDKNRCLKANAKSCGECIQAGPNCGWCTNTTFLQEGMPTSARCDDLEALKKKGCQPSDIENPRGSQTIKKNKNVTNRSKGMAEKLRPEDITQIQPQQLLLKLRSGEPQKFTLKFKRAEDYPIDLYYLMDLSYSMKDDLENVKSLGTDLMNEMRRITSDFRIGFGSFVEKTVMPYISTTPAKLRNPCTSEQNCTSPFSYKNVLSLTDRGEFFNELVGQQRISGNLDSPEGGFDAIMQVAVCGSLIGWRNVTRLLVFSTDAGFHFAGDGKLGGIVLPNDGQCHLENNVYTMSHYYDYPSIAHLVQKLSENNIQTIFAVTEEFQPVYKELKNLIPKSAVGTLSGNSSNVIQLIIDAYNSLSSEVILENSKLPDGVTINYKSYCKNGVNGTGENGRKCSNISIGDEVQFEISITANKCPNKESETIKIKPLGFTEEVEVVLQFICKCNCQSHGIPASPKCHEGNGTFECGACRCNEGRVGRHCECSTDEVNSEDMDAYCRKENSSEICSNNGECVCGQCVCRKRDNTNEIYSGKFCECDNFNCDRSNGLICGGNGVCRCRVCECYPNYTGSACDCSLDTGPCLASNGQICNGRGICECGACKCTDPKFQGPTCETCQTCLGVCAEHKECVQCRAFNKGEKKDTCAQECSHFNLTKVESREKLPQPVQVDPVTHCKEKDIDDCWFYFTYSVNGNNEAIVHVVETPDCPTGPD
ASSAY EXPLANATION: Mouse AlphaLISA integrin-ligand blocking assay (fibronectin)
Format: biochemical
EXPERIMENTAL PARAMETERS: Table 12; read-out: IC50 Mouse integrin AlphaLISA assays mα5β1
pIC50: −log10 of the molar value.

| MOLECULE | pIC50 |
| --- | --- |
| Ab-33: integrin binder antibody, VH SEQ ID NO: 39, VL SEQ ID NO: 40 (antibody, V domains shown) VH: EVQLVQSGAEVKKPGSSVKVSCKASGGTFSNYAISWVRQAPGQGLEWMGGIIPIFGTANYAQKFQGRVTITADESTSTAYMELSSLRSEDTAVYYCARAPRSARGDMYYYYYGMDVWGQGTTVTVSS VL: DIQMTQSPSTLSASVGDRVTITCRASQSIGSWLAWYQQKPGKAPKLLIYKASSLESGVPSRFSGSGSGTEFTLTISSLQPDDFATYYCQQYGRYPWTFGGGTKVEIK | < 6.60 |
| mAb-24: control antibody abituzumab; 17E6, a therapeutic pan-αv integrin antibody (antibody, chains of the INN, looked up, V domains shown) VH: QVQLQQSGGELAKPGASVKVSCKASGYTFSSFWMHWVRQAPGQGLEWIGYINPRSGYTEYNEIFRDKATMTTDTSTSTAYMELSSLRSEDTAVYYCASFLGRGAMDYWGQGTTVTVSS VL: DIQMTQSPSSLSASVGDRVTITCRASQDISNYLAWYQQKPGKAPKLLIYYTSKIHSGVPSRFSGSGSGTDYTFTISSLQPEDIATYYCQQGNTFPYTFGQGTKVEIK | < 6.60 |
| Ab-31: integrin binder antibody, VH SEQ ID NO: 35, VL SEQ ID NO: 36 (antibody, V domains shown) VH: EVQLQESGPGLVKPSETLSLTCAVSGYSISSGYYWGWIRQPPGKGLEWIGSIYHSGNTYYNPSLKSRVTISVDTSKNQFSLKLSSVTAADTAVYYCARVPRYSRGDAYYYYGMDVWGQGTTVTVSS VL: DIQMTQSPSTLSASVGDRVTITCRASQSIGSWLAWYQQKPGKAPKLLIYKASSLESGVPSRFSGSGSGTEFTLTISSLQPDDFATYYCQQSGPYPWTFGGGTKVEIK | < 6.60 |
